Kindly state TGI for each of the entries shown.
# System: SF-268 CNS
# assay.protocol: NCI tumour cell line growth inhibition, 48 h

Here is how some compounds turned out for TGI.
O=C(c1cccnc1)N1N=C(c2ccccc2)CC1(O)c1cc(F)c(Cl)cc1Cl (centres undefined)    > 100 µM
C=CCN1/C(=C2\SC(=S)N(c3ccc(C)cc3)C2=O)Sc2c1ncn(C)c2=O    > 100 µM
Cc1cc(OCCOCCC(F)(F)P(=O)(O)O)ccc1CCc1cnc2c(N)nc3cc(CCC(=O)O)ccc3c2c1    > 100 µM
CN(O)C(=O)CCCC(=O)NCC(C)(C)CNC(=O)CCCC(=O)N(C)O    > 100 µM
C1CN(P2(N3CC3)=NP(N3CC3)(N3CC3)=NP(N3CC3)(N3CC3)=N2)CCO1 (centres undefined)    > 100 µM
Cc1cc(S(=O)(=O)Nc2nncn2-c2ccc(Cl)cc2)c(S)cc1Cl    > 10 µM

Provide each entry's TGI from the list below.
1. N#C/C(=N\Nc1ccccc1)C(=O)Nc1cc(-c2ccccc2)nn1-c1ccccc1
2. CO/N=C(\C([O-])=N\[n+]1cnn(CC(=O)OC(C)(C)C)c1)c1csc(NC(c2ccccc2)(c2ccccc2)c2ccccc2)n1
3. O=c1[nH]nc(Cc2ccccc2)n1/N=C/c1cccnc1
4. Cc1nc2ccc(F)cc2c(Cl)c1CCCl
5. CCOc1ccc(C(C)c2cc3c(cc2OC)OCO3)cc1 (centres undefined)
6. COc1ccc(NC(=O)c2sc3nc(C)c(C(=O)/C=C/c4cccc(OC)c4)cc3c2N)cc1

1: > 100 µM; 2: > 10 µM; 3: > 100 µM; 4: > 100 µM; 5: 45.5 µM; 6: 14.1 µM

Need TGI for each of these compounds.
1. COc1ccc2oc(-c3ccc(OC)c(OC)c3OC)cc(=O)c2c1
2. Cc1ccc2c(c1)C(=O)c1c-2c(OCCCN(C)C)nc2ccccc12
3. C=C1SC(=Nc2ccccc2Cl)N(C(=O)c2sc3ccccc3c2Cl)C12CCCCC2
4. CCSc1nc(=S)n(-c2ccccc2)c(C)c1C(C)=O

1. > 100 µM
2. 12.9 µM
3. > 100 µM
4. > 100 µM

For every item in the list below, what is its measured TGI?
1. C#C[C@@]1(O)CCCC2=CC3(CC[C@]21C)SCCS3
2. COc1c(Br)cc2ccccc2c1-c1c(OC)c(Br)cc2ccccc12
3. CCCCCC[C@@H](C)NC(=O)c1ccc(Nc2nc3ccccc3c3occc23)cc1

1: > 100 µM; 2: > 100 µM; 3: > 100 µM

Please state, for each entry, its recorded TGI.
1. Cc1cccc(C)c1N1C(=O)C(=O)C(c2nc3ccccc3s2)/C(=N/NC(=O)c2ccccc2O)C1=O (centres undefined)
2. CCOC1NC(=O)Oc2cc3ccccc3cc21 (centres undefined)

> 68.8 µM
> 100 µM

Report TGI for each item below.
1. C=C1C(=O)O[C@H]2[C@H]1CC/C(COC(=O)OC/C1=C/CC[C@@]3(C)O[C@H]3[C@H]3OC(=O)[C@@H](CN(C)C)[C@@H]3CC1)=C\CC[C@@]1(C)O[C@@H]21
2. C[C@]12CC[C@H]3[C@@H](CC4SC(N)=NC45C/C(=N/NC(N)=O)CC[C@]35C)[C@@H]1CCC2=O (some centres undefined)
3. Cc1ccc2nc3cc(C)c(=O)cc-3sc2c1
4. COc1cc(C(=O)O[C@H](C(=O)NCCN(C)CCNC(=O)[C@@H](OC(=O)c2cc(OC)cc3c(C)cccc23)[C@]2(C)CO2)[C@]2(C)CO2)c2cccc(C)c2c1
5. CC(=O)O[C@H]1C(=O)[C@@]2(C)[C@H]([C@H](OC(=O)c3ccccc3)[C@]3(O)C[C@H](OC(=O)[C@H](O)[C@@H](NC(=O)c4ccccc4)c4cccc(N(C)C)c4)C(C)=C1C3(C)C)[C@]1(OC(C)=O)CO[C@@H]1C[C@@H]2O

1. 13.7 µM
2. 4.11 µM
3. > 100 µM
4. 0.929 µM
5. > 75 µM

// each listed compound needs a value for TGI
1. Cc1cc2c(c(S(=O)(=O)c3ccccc3[N+](=O)[O-])c1)NCCC2
2. Cc1nc2ccccn2c1NC(=O)NNC(=S)Nc1ccc(F)cc1
3. O=C1C(=O)c2ccccc2C(O)=C1CCCc1ccc(C2CCCCC2)cc1
4. CN(C)CCOc1ccc(-c2c(Oc3ccccc3)c(=O)oc3ccccc23)cc1

["> 100 µM", "> 100 µM", "49.6 µM", "25.4 µM"]

Go through the items and report each one's TGI.
1. O=C1CSC(c2ccc([N+](=O)[O-])cc2)N1c1ccc(-c2ccc(-n3c(-c4ccccc4)nc4ccccc4c3=O)cc2)cc1 (centres undefined)
2. C[C@H]1COCCN1c1cc(C2(S(=O)(=O)C3CC3)CC2)nc(-c2ccc(NC(=S)NCCO)cc2)n1
3. COC1=CC(=O)C=C(OC)C1=O
4. C=CC(=O)N1C/C(=C\c2ccc([N+](=O)[O-])cc2)C(=O)/C(=C/c2ccc([N+](=O)[O-])cc2)C1
5. CN(C)CCNC(=O)c1cccc2nc3c(C(=O)NCCN(C)C)cccc3nc12
6. O=C(OC1CN2CCC1CC2)N(c1ccccc1)c1ccccc1 (centres undefined)

1. > 100 µM
2. > 41.3 µM
3. 15.3 µM
4. 0.338 µM
5. 4.84 µM
6. > 100 µM

Could you tell me TGI for each of these compounds? They are listed below.
1. COC(=O)/C(C#N)=C(\N)C(Cl)(Cl)Cl
2. O=C(CI)Nc1ccc(O)c2ccccc12
3. O=C(c1cccs1)N1CCCN(C(=O)c2cccs2)C1=S

1: 14.7 µM; 2: 5.56 µM; 3: > 100 µM

Reference source for all entries: PubChem BioAssay (NCI)
